measurement protocol: Antioxidant activity assessed as DPPH radical scavenging activity incubated for 30 mins under dark condition
Assay type: functional
Below, each of the compounds is paired with its reported IC50 value.
reported property: IC50 (µg/mL)

1) CCCCn1cc(Cn2c(-c3ccc(OC)cc3)nc3c2C(=O)c2ccccc2C3=O)nn1	10.76
2) COc1ccc(-c2nc3c(n2Cc2cn(-c4ccc(C)cc4)nn2)C(=O)c2ccccc2C3=O)c(OC)c1	11.19
3) COc1ccc(-c2nc3c(n2Cc2cn(-c4ccc(C)cc4)nn2)C(=O)c2ccccc2C3=O)c(OC)c1OC	10.19
4) COc1ccc(-c2nc3c(n2Cc2cn(-c4ccc(OC)cc4)nn2)C(=O)c2ccccc2C3=O)cc1	9.55
5) CCCCn1cc(Cn2c(-c3ccc(OC)c(OC)c3OC)nc3c2C(=O)c2ccccc2C3=O)nn1	9.23
6) COc1ccc(-n2cc(Cn3c(-c4ccc(OC)c(OC)c4OC)nc4c3C(=O)c3ccccc3C4=O)nn2)cc1	8.99
7) COc1ccc(-c2nc3c(n2Cc2cn(-c4ccc([N+](=O)[O-])cc4)nn2)C(=O)c2ccccc2C3=O)cc1	10.88
8) COc1cccc(-c2nc3c(n2Cc2cn(-c4ccc(C)cc4)nn2)C(=O)c2ccccc2C3=O)c1	9.5
9) COc1ccc(-c2nc3c(n2Cc2cn(-c4ccc([N+](=O)[O-])cc4)nn2)C(=O)c2ccccc2C3=O)c(OC)c1OC	10.1

---

measured on: UniProt:P0DUB6
measurement protocol: Inhibition of alpha amylase (unknown origin) using starch as substrate preincubated for 30 mins followed by substrate addition and measured after 30 mins by absorbance based analysis
// reported IC50 for each item listed
reported property: IC50 (µg/mL)

1. COc1cccc(-c2nc3c(n2Cc2cn(-c4ccccc4)nn2)C(=O)c2ccccc2C3=O)c1	25.07
2. CCCCn1cc(Cn2c(-c3ccc(OC)cc3)nc3c2C(=O)c2ccccc2C3=O)nn1	24.25
3. COc1ccc(-c2nc3c(n2Cc2cn(-c4ccccc4)nn2)C(=O)c2ccccc2C3=O)c(OC)c1OC	18.51
4. O=C1c2ccccc2C(=O)c2c1nc(-c1ccc(F)cc1)n2Cc1cn(-c2ccc([N+](=O)[O-])cc2)nn1	18.63

---

measurement protocol: Antioxidant activity assessed as DPPH radical scavenging activity incubated for 30 mins under dark condition
Type: functional
The entries below are paired with their reported IC50.
reported property: IC50 (µg/mL)

1) COc1cccc(-c2nc3c(n2Cc2cn(-c4ccccc4)nn2)C(=O)c2ccccc2C3=O)c1	10.05
2) CCCCn1cc(Cn2c(-c3ccc(F)cc3)nc3c2C(=O)c2ccccc2C3=O)nn1	9.41
3) COc1ccc(-c2nc3c(n2Cc2cn(-c4ccccc4)nn2)C(=O)c2ccccc2C3=O)c(OC)c1OC	9.63
4) COc1ccc(-c2nc3c(n2Cc2cn(-c4ccc([N+](=O)[O-])cc4)nn2)C(=O)c2ccccc2C3=O)c(OC)c1	10.07

---

measured on: Alpha amylase (Homo sapiens)
Sequence (P0DUB6 whole entry): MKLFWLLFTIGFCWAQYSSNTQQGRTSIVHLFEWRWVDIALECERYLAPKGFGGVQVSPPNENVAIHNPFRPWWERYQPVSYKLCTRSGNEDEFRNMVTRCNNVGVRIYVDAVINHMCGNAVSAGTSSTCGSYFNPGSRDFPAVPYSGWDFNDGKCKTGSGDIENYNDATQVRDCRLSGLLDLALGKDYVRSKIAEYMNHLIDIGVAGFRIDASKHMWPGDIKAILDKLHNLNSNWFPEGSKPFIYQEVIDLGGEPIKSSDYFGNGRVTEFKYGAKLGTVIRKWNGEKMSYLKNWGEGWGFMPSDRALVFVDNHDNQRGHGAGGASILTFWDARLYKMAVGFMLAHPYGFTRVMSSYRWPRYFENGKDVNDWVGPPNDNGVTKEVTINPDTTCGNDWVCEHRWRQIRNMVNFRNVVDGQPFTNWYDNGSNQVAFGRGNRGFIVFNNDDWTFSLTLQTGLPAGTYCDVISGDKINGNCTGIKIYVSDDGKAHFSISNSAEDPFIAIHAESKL
measurement protocol: Inhibition of alpha amylase (unknown origin) using starch as substrate preincubated for 30 mins followed by substrate addition and measured after 30 mins by absorbance based analysis
Labelling field: enter fulfilled if recorded IC50 is less than 20 µg/mL. Enter not fulfilled if it equals or exceeds that cut-off.

1. CCCCn1cc(Cn2c(-c3ccc(OC)cc3OC)nc3c2C(=O)c2ccccc2C3=O)nn1	not fulfilled
2. COc1ccc(-n2cc(Cn3c(-c4cccc(OC)c4)nc4c3C(=O)c3ccccc3C4=O)nn2)cc1	not fulfilled
3. COc1ccc(-c2nc3c(n2Cc2cn(-c4ccc([N+](=O)[O-])cc4)nn2)C(=O)c2ccccc2C3=O)c(OC)c1OC	fulfilled
4. O=C1c2ccccc2C(=O)c2c1nc(-c1ccc(F)cc1)n2Cc1cn(-c2ccccc2)nn1	not fulfilled
5. COc1ccc(-c2nc3c(n2Cc2cn(-c4ccc(C)cc4)nn2)C(=O)c2ccccc2C3=O)c(OC)c1	not fulfilled
6. COc1cccc(-c2nc3c(n2Cc2cn(-c4ccc(F)cc4)nn2)C(=O)c2ccccc2C3=O)c1	fulfilled
7. CCCCn1cc(Cn2c(-c3ccc(OC)c(OC)c3OC)nc3c2C(=O)c2ccccc2C3=O)nn1	not fulfilled
8. COc1ccc(-c2nc3c(n2Cc2cn(-c4ccc(C)cc4)nn2)C(=O)c2ccccc2C3=O)cc1	not fulfilled
9. COc1ccc(-c2nc3c(n2Cc2cn(-c4ccc(OC)cc4)nn2)C(=O)c2ccccc2C3=O)cc1	not fulfilled
10. COc1ccc(-c2nc3c(n2Cc2cn(-c4ccc(C)cc4)nn2)C(=O)c2ccccc2C3=O)c(OC)c1OC	not fulfilled
11. COc1cccc(-c2nc3c(n2Cc2cn(-c4ccc(C)cc4)nn2)C(=O)c2ccccc2C3=O)c1	fulfilled
12. COc1ccc(-c2nc3c(n2Cc2cn(-c4ccccc4)nn2)C(=O)c2ccccc2C3=O)cc1	not fulfilled
13. COc1ccc(-n2cc(Cn3c(-c4ccc(OC)c(OC)c4OC)nc4c3C(=O)c3ccccc3C4=O)nn2)cc1	fulfilled
14. COc1ccc(-c2nc3c(n2Cc2cn(-c4ccc(F)cc4)nn2)C(=O)c2ccccc2C3=O)c(OC)c1	not fulfilled
15. COc1ccc(-c2nc3c(n2Cc2cn(-c4ccc([N+](=O)[O-])cc4)nn2)C(=O)c2ccccc2C3=O)cc1	fulfilled
16. O=C1c2ccccc2C(=O)c2c1nc(-c1ccc(F)cc1)n2Cc1cn(-c2ccc(F)cc2)nn1	not fulfilled
17. Cc1ccc(-n2cc(Cn3c(-c4ccc(F)cc4)nc4c3C(=O)c3ccccc3C4=O)nn2)cc1	not fulfilled
18. COc1ccc(-c2nc3c(n2Cc2cn(-c4ccc(F)cc4)nn2)C(=O)c2ccccc2C3=O)c(OC)c1OC	not fulfilled
19. COc1cccc(-c2nc3c(n2Cc2cn(-c4ccc([N+](=O)[O-])cc4)nn2)C(=O)c2ccccc2C3=O)c1	not fulfilled
20. CCCCn1cc(Cn2c(-c3cccc(OC)c3)nc3c2C(=O)c2ccccc2C3=O)nn1	not fulfilled
21. COc1ccc(-n2cc(Cn3c(-c4ccc(OC)cc4OC)nc4c3C(=O)c3ccccc3C4=O)nn2)cc1	fulfilled
22. COc1ccc(-c2nc3c(n2Cc2cn(-c4ccc(F)cc4)nn2)C(=O)c2ccccc2C3=O)cc1	not fulfilled
23. COc1ccc(-c2nc3c(n2Cc2cn(-c4ccccc4)nn2)C(=O)c2ccccc2C3=O)c(OC)c1	not fulfilled

---

measured on: Alpha amylase (Homo sapiens)
measurement protocol: Inhibition of alpha amylase (unknown origin) using starch as substrate preincubated for 30 mins followed by substrate addition and measured after 30 mins by absorbance based analysis
reported property: IC50 (µg/mL)

1. CCCCn1cc(Cn2c(-c3ccc(F)cc3)nc3c2C(=O)c2ccccc2C3=O)nn1	19.72
2. COc1ccc(-n2cc(Cn3c(-c4ccc(F)cc4)nc4c3C(=O)c3ccccc3C4=O)nn2)cc1	19.87
3. COc1ccc(-c2nc3c(n2Cc2cn(-c4ccc([N+](=O)[O-])cc4)nn2)C(=O)c2ccccc2C3=O)c(OC)c1	20.24
